- protocolText: Phase Ib trial: pharmacokinetics of linperlisib 80 mg once daily
- Format: in vivo, human
- measurementParameters: human; single dose oral 80 mg qd; n = 13; plasma; read-out: AUC0-24, mean (SD)
reportedMetric: AUC(0-t)

Sample COc1ncc(-c2nc(N3CCOCC3)nc3c(CN4CCC(C(C)(C)O)CC4)cc(F)cc23)cc1NS(C)(=O)=O ; AUC(0-t) observed: 4920 ng·h/mL

====

- protocolText: Phase Ib trial: pharmacokinetics of linperlisib 80 mg once daily
- Format: in vivo, human
- measurementParameters: human; single dose oral 80 mg qd; n = 13; plasma; read-out: MRT, median (range)
reportedMetric: MRT (h)
Entry rule: numbers only, all in h.

Data point: COc1ncc(-c2nc(N3CCOCC3)nc3c(CN4CCC(C(C)(C)O)CC4)cc(F)cc23)cc1NS(C)(=O)=O ; MRT = 18.9
